Entry source: patent US11230581B2

target: HLA-A*02:01 (Homo sapiens, UniProt P04439, D140Y/D185E/D98H/E176V/E277Q/G131W/G231S/I119V/I121R/I166T/I218V/L300P/L318F/N151K/N90K/P208A/P217A/Q86G/Q94H/R138H/R169H/T345S); test: MHC binding assay (UV-ligand exchange, β2m ELISA, peptide exchange yield); settings: binding of HLA-class I restricted peptides to HLA-A*02:01, UV-ligand exchange
Measured Attribute: Peptide exchange (MHC class I binding score, peptide exchange yield)

In [3]: df
Out[3]:
                                  substance             result
0  26 (ALLELAEEL; listed as Homo sapiens) [compound 26]  “+++” (≥50 = +++)
1  311 (RLYTGMHTV; listed as Homo sapiens) [compound 311]  “+++” (≥50 = +++)
2  472 (KLLEVSDDPQV; listed as Homo sapiens) [compound 472]  “+++” (≥50 = +++)
3  246 (LLWEVVSQL; listed as Homo sapiens) [compound 246]  “+++” (≥50 = +++)
4  93 (LLQAIKLYL; listed as Homo sapiens) [compound 93]   “++” (≥20% = ++)

Can you share its Peptide exchange (MHC class I binding score, peptide exchange yield)? I mean this substance: 551 (KLYESLLPFA; listed as Homo sapiens) [compound 551] “+++” (≥50 = +++)

Can you share its Peptide exchange (MHC class I binding score, peptide exchange yield)? I mean this substance: 330 (QLALKVEGV; listed as Homo sapiens) [compound 330] “+++” (≥50 = +++)

Can you share its Peptide exchange (MHC class I binding score, peptide exchange yield)? I mean this substance: 605 (KLYEAVPQL; listed as Homo sapiens) [compound 605] “+++” (≥50 = +++)

Can you share its Peptide exchange (MHC class I binding score, peptide exchange yield)? I mean this substance: 412 (YLDDLNEGVYI; listed as Homo sapiens) [compound 412] “++” (≥20% = ++)

Can you share its Peptide exchange (MHC class I binding score, peptide exchange yield)? I mean this substance: 16 (VLFQGQASL; listed as Homo sapiens) [compound 16] “+++” (≥50 = +++)

Can you share its Peptide exchange (MHC class I binding score, peptide exchange yield)? I mean this substance: 57 (TLAELQPPVQL; listed as Homo sapiens) [compound 57] “+++” (≥50 = +++)

Can you share its Peptide exchange (MHC class I binding score, peptide exchange yield)? I mean this substance: 94 (YLIDIKTIAI; listed as Homo sapiens) [compound 94] “++” (≥20% = ++)

====

target: HLA-A*02:01 (Homo sapiens, UniProt P04439, D140Y/D185E/D98H/E176V/E277Q/G131W/G231S/I119V/I121R/I166T/I218V/L300P/L318F/N151K/N90K/P208A/P217A/Q86G/Q94H/R138H/R169H/T345S); assay: MHC binding assay (UV-ligand exchange, β2m ELISA, peptide exchange yield); conditions: binding of HLA-class I restricted peptides to HLA-A*02:01, UV-ligand exchange
Measured Attribute: Peptide exchange (MHC class I binding score, peptide exchange yield)

>>> df
                                  substance             result
0  608 (SLLSVSHAL; listed as Homo sapiens) [compound 608]  “+++” (≥50 = +++)
1  447 (QLVPALAKV; listed as Homo sapiens) [compound 447]   “++” (≥20% = ++)
2  151 (KILQQLVTL; listed as Homo sapiens) [compound 151]  “+++” (≥50 = +++)
3  365 (YVIDQGETDVYV; listed as Homo sapiens) [compound 365]  “+++” (≥50 = +++)
4  220 (LLQKFVPEI; listed as Homo sapiens) [compound 220]   “++” (≥20% = ++)

Can you share its Peptide exchange (MHC class I binding score, peptide exchange yield)? I mean this substance: 221 (ALYEEGLLL; listed as Homo sapiens) [compound 221] “++” (≥20% = ++)

Can you share its Peptide exchange (MHC class I binding score, peptide exchange yield)? I mean this substance: 439 (YLLQEIYGI; listed as Homo sapiens) [compound 439] “+++” (≥50 = +++)

Can you share its Peptide exchange (MHC class I binding score, peptide exchange yield)? I mean this substance: 555 (YVLEGLKSV; listed as Homo sapiens) [compound 555] “+++” (≥50 = +++)

Can you share its Peptide exchange (MHC class I binding score, peptide exchange yield)? I mean this substance: 17 (GLLPGDRLVSV; listed as Homo sapiens) [compound 17] “+++” (≥50 = +++)
